// provenance: the supplement of paper PMC7125110

B1: glmS ribozyme (parent)
chain: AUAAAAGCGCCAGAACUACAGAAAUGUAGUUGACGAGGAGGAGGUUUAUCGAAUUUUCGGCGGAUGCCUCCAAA

Variants of: B1
Experiment: self-cleavage kobs at 640 uM GlcN6P; higher = faster cleavage; RNA array
Details: with glucosamine-6-phosphate
This sample holds only a part of the variants without activity.
Endpoint name: self-cleavage kobs at 640 uM GlcN6P

> print(dat)
         mutation.annotation  recorded.value
 1                 G44C C61U     < 1e-05 s⁻¹
 2       G29U A48U A53U G63A     < 1e-05 s⁻¹
 3       U31G G35C U46A C70G     < 1e-05 s⁻¹
 4                 A14C U46G    0.000209 s⁻¹
 5             C8U G13A G66U     < 1e-05 s⁻¹
 6                 C16U G59C     < 1e-05 s⁻¹
 7                 G13U C58G    9.89e-05 s⁻¹
 8                 A15U G62C     < 1e-05 s⁻¹
 9         A6U G9C A12C U55A     < 1e-05 s⁻¹
10                 G32A A52C     < 1e-05 s⁻¹
11                 G37A A64G    0.000337 s⁻¹
12                 A14C G41U    0.000102 s⁻¹
13       A15C G29C G35A C50A     < 1e-05 s⁻¹
14        A6G C34G G51U G63A     < 1e-05 s⁻¹
15                 G29U U46A    7.15e-05 s⁻¹
16            A15C A36G U55A     < 1e-05 s⁻¹
17                 A33U A64C     < 1e-05 s⁻¹
18             C8G A14U G66U     < 1e-05 s⁻¹
19                 C68A U69G    9.62e-05 s⁻¹
20                 A12G U47A    0.000152 s⁻¹
21                 U55G C71U     0.00353 s⁻¹
22            C50G C61U G66U    7.98e-05 s⁻¹
23                 G66U U69C    0.000207 s⁻¹
24                 A12C G41U     0.00028 s⁻¹
25                 U54G U65G    0.000629 s⁻¹
26                 A39C C70A     < 1e-05 s⁻¹
27            C16U A36G A39C     < 1e-05 s⁻¹
28                  C8U A33C     < 1e-05 s⁻¹
29            A14G G40U C61G     < 1e-05 s⁻¹
30                 G35A G41A     < 1e-05 s⁻¹
31                 U46C C70U     0.00156 s⁻¹
32                  G9A G38C     < 1e-05 s⁻¹
33       C10U G32A G59A G60A     < 1e-05 s⁻¹
34        A6G C11G G13C C61G     < 1e-05 s⁻¹
35            G32U C50U C61U     < 1e-05 s⁻¹
36            A36G C58U C70U     < 1e-05 s⁻¹
37                 G40U C70U    0.000566 s⁻¹
38                 G38U G41C     < 1e-05 s⁻¹
39                 A12G A64G    0.000128 s⁻¹
40       A12U G13A C50G C67U    0.000169 s⁻¹
41                 G32C G35A     < 1e-05 s⁻¹
42                 G29A A33G     < 1e-05 s⁻¹
43            G29A G32A C71A    6.03e-05 s⁻¹
44                 U30G U47G     0.00043 s⁻¹
45  A14C A33C A53U U55A G60U     < 1e-05 s⁻¹
46                 G35A U49A     < 1e-05 s⁻¹
